System: SNB-75 CNS
Experiment: NCI-60 one-dose screen, 48 h (100 = growth as untreated, 0 = no growth, -100 = all killed)
Condition label: 10 µM unless noted
The panel holds about 83,000 compounds, 20% with a hit somewhere; the sample as a whole holds those more often.
What growth was measured for each of the following?
Give bare numbers, in %.

>>> number("S=P(SP(=S)(c1ccccc1)c1ccccc1)(c1ccccc1)c1ccccc1")
91.2
>>> number("C=CC[PH+](c1ccccc1)c1ccccc1.C=CC[PH+](c1ccccc1)c1ccccc1.[Pt+2].[S-]c1ncccn1.[S-]c1ncccn1")
58.3
>>> number("COc1cc2c(cc1OC)[C@@H]1C(=O)c3ccc4c(c3O[C@@H]1CO2)C[C@H](C(C)C)O4")
90.1

Turning now to a further record.
Exercise: # returns recorded growth (system: SNB-75 CNS) for CC12CCC3C4CCC(=O)C=C4CCC3C1CC1CC(=O)OC12 (centres undefined)
Solution: 92.3

###

System: SF-539 CNS
Experiment: NCI-60 one-dose screen, 48 h
Condition label: 10 µM unless noted
This is part of a sample that, as a whole, favours compounds with a hit. Of some 83,000 tested, about 20% had one in any assay. Calls of active or inactive are those of the source. Rule for the calls: active = growth percent below 10; inactive = the rest.
Field 'call' accepts 1 (yes) (active), 0 (no) (inactive)

For orientation, consider the following solved cases.
>>> qualitative_label("CC12CCC3C4CCC(=O)C=C4CCC3C1CC1CC(=O)OC12 (stereo not drawn)")
"0 (no)"
>>> qualitative_label("OCCN=Cc1c[nH]c2ccccc12")
"0 (no)"

Now consider a different compound.
Exercise: Which outcome was assigned to C[C@]12CC[C@H]3[C@@H](CC=C4c5nc(-c6ccc(Br)cc6)sc5CC[C@@]43C)[C@@H]1CC[C@@H]2O in this test?
Solution: 1 (yes)

###

Please go through the items and note down their growth.
Test system: SK-OV-3 ovarian
Experiment: NCI-60 one-dose screen, 48 h (100 = growth as untreated, 0 = no growth, -100 = all killed)
Condition label: 10 µM unless noted
Compounds without any hit were thinned out: in the full panel of roughly 83,000, 20% have a hit. Activity calls are given as the source filed them. Rule for the calls: active = growth percent below 10; inactive = the rest.

Completed entries (count: 5):
>>> result("CC(Oc1ccc(-c2ccccc2)cc1)C(=O)O (configuration not stated)")
"105% (inactive)"
>>> result("C#COc1cccc(Nc2ncnc3cc(NC(=O)CF)ccc23)c1")
"34.8% [6.25 µM] (inactive)"
>>> result("N#CCN(CC#N)[N+](=O)[O-]")
"104% (inactive)"
>>> result("O=NN(c1ccccc1)c1ccccc1")
"105% (inactive)"
>>> result("CC[C@H](C)[C@H](NC(=O)c1cnccn1)C(=O)N(C)[C@H](C[C@@H](OC(C)=O)c1nc(C(=O)N[C@@H](Cc2ccccc2)C[C@H](C)C(=O)OC)cs1)C(C)C")
"20.6% (inactive)"

Hey, quick one: what's growth for each of these?
1. C/C(=C\c1ccn(-c2ccc(N)cc2F)n1)[C@@H]1C[C@@H]2O[C@]2(C)CCC[C@H](C)[C@H](O)[C@@H](C)C(=O)C(C)(C)[C@@H](O)CC(=O)O1
2. CCN1C(=O)NC(=O)C(C)(N2C(=O)c3c(F)c(F)c(F)c(F)c3C2=O)C1=O (configuration not stated)

Solution:
1. 33.9% (inactive)
2. 96.9% (inactive)
